All values here come from patent US9120804B2.

pIC50: −log10 of the molar value.
A short record of pIC50 observed with SYK (Homo sapiens) follows.

> print(dat)
                                   molecule  assay.result
1  NC(=O)C1(c2ccc(Nc3nc4c(-c5cn[nH]c5)nccn4n3)cc2)CC1  6.52 to 7.00
2  CC1(C)C(=O)Nc2cc(Nc3nc4c(-c5cnc6c(c5)CCCO6)nccn4n3)ccc21        > 7.00
3  CC1(C)C(=O)Nc2cc(Nc3nc4c(NCCCN)nccn4n3)ccc21  5.52 to 6.52
4  CC1(C)C(=O)Nc2cc(Nc3nc4c(N5CCc6ccc(C#N)cc6C5)nccn4n3)ccc21        > 7.00
5  CN1CCCC(Nc2nccn3nc(Nc4ccc5c(c4)NC(=O)C5(C)C)nc23)C1 (stereo not drawn)  5.52 to 6.52
6  Cn1cc(-c2nccn3nc(Nc4ccc(CS(=O)(=O)O)c(N)c4)nc23)cn1  6.52 to 7.00

I am curious: what pIC50 value has been reported for `CC1(C)C(=O)Nc2cc(Nc3nc4c(N5CCC[C@@H](N)C5)nccn4n3)ccc21` ? > 7.00

I am curious: what pIC50 value has been reported for `Cn1cc(-c2nccn3nc(Nc4ccc5c(c4)NC(=O)C5(C)C)nc23)cn1` ? > 7.00

I am curious: what pIC50 value has been reported for CC(C)C1(O)C(=O)Nc2cc(Nc3nc4c(-c5cnn(C)c5)nccn4n3)ccc21 (stereo not drawn) ? 6.52 to 7.00

====

A short record of IC50 observed with GCN2 (Homo sapiens) follows.
Sequence (Q9P2K8 whole entry): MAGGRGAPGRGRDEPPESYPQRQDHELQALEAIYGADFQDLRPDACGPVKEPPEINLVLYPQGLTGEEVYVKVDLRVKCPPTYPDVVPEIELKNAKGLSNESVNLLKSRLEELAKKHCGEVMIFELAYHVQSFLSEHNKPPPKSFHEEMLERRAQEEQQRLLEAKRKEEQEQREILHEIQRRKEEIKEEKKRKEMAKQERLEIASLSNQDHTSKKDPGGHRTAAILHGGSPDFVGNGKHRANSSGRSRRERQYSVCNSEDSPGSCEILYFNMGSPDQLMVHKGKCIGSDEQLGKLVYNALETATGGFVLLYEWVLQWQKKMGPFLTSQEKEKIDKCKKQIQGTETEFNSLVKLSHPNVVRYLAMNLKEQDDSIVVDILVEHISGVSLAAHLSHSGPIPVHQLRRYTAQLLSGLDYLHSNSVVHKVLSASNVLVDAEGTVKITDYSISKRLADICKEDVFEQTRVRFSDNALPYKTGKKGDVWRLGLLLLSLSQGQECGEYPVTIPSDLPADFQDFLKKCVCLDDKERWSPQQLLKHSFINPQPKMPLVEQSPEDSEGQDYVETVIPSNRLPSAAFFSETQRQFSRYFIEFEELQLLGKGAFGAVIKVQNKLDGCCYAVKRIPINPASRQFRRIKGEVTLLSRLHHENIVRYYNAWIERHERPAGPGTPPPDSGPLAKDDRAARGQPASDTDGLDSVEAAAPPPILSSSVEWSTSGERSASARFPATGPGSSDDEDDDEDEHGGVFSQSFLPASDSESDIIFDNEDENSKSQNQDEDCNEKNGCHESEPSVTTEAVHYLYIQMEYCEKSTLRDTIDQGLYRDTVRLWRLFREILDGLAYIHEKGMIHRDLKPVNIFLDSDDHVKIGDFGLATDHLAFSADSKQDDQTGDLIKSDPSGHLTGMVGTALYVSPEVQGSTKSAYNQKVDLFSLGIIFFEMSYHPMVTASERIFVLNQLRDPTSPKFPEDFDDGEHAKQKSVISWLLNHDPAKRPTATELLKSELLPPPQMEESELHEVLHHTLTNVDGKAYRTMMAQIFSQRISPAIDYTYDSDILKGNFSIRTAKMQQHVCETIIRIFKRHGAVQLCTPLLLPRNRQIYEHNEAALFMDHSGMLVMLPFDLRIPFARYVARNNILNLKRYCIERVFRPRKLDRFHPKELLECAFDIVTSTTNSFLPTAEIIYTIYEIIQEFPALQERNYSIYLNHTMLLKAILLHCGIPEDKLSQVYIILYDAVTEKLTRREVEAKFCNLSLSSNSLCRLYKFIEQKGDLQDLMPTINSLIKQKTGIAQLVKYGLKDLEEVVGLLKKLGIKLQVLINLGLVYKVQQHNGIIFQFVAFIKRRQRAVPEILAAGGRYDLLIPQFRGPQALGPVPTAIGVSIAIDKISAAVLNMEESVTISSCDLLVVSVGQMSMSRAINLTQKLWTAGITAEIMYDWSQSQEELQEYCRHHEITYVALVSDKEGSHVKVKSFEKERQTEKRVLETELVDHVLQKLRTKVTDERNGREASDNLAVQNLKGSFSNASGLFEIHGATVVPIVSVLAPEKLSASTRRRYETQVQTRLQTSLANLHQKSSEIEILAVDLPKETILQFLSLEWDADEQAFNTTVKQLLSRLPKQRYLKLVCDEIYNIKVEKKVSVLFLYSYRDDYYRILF

Which measured IC50 belongs to `CC1(C)OC(=O)Nc2cc(Nc3nc4c(-c5cccc6[nH]ncc56)nccn4n3)ccc21` , tested on GCN2 (Homo sapiens)? 0.3 to 3 µM

Which measured IC50 belongs to `COc1cc(Nc2nc3c(N4CCN(C(=O)CO)CC4)nccn3n2)cc(OC)c1` , tested on GCN2 (Homo sapiens)? 3 to 50 µM

Which measured IC50 belongs to `Cn1cc(-c2nccn3nc(Nc4ccc5c(c4)NC(=O)C5)nc23)cn1` , tested on GCN2 (Homo sapiens)? 0.3 to 3 µM

Which measured IC50 belongs to `COc1ccc(Nc2nc3c(-c4cnn(C)c4)nccn3n2)cc1` , tested on GCN2 (Homo sapiens)? 3 to 50 µM

====

A short record of IC50 observed with SYK (Homo sapiens, UniProt P43405) follows.

Which measured IC50 belongs to `CN(CCc1ccccn1)c1nccn2nc(Nc3ccc4c(c3)NC(=O)C4(C)C)nc12` , tested on SYK (Homo sapiens, UniProt P43405)? 300 to 3000 nM

====

target: SYK (Homo sapiens)
measurement.label: IC50

> print(dat)
                                   compound   assay.result
1  CC1(C)C(=O)Nc2cc(Nc3nc4c(N5CCC6(CC5)NC(=O)NC6=O)nccn4n3)ccc21       < 100 nM
2  COc1ccc(Nc2nc3c(-c4ccccc4-c4ccccc4)nccn3n2)cc1OC  100 to 300 nM

Which measured IC50 belongs to CC1(C)C(=O)Nc2cc(Nc3nc4c(NC5CN6CCC5CC6)nccn4n3)ccc21 (stereo not drawn) , tested on SYK (Homo sapiens)? < 100 nM

====

A short record of pIC50 observed with SYK (Homo sapiens) follows.
pIC50: −log10 of the molar value.

> print(dat)
                                   compound  assay.result
1  CN1[C@@H]2CC[C@H]1C[C@@H](Nc1nccn3nc(Nc4ccc5c(c4)NC(=O)C5(C)C)nc13)C2  6.52 to 7.00
2  NS(=O)(=O)c1ccc(Nc2nc3c(-c4ccccc4-c4ccccc4)nccn3n2)cc1  4.30 to 5.52
3  Cn1cc(-c2nccn3nc(Nc4ccc(C#N)c(O)c4)nc23)cn1  5.52 to 6.52
4  CC1(C)C(=O)Nc2cc(Nc3nc4c(N5CCC(O)(C(F)(F)F)CC5)nccn4n3)ccc21        > 7.00
5  CNS(=O)(=O)C1CCN(c2nccn3nc(Nc4ccc5c(c4)NC(=O)C5(C)C)nc23)CC1  6.52 to 7.00
6  CN(C)c1ccc2c(c1)N(c1nccn3nc(Nc4ccc5c(c4)NC(=O)C5(C)C)nc13)CC2  6.52 to 7.00

Which measured pIC50 belongs to COc1cc(Nc2nc3c(N4CCN(C(=O)OC(C)(C)C)CC4)nccn3n2)cc(OC)c1 [D1] , tested on SYK (Homo sapiens)? 4.30 to 5.52

Which measured pIC50 belongs to `Cn1cc(-c2nccn3nc(Nc4ccc5cnn(C)c5c4)nc23)cn1` , tested on SYK (Homo sapiens)? 5.52 to 6.52
